For each of the variants below, state its nonsense suppression.
B1: tRNA (parent)
chain: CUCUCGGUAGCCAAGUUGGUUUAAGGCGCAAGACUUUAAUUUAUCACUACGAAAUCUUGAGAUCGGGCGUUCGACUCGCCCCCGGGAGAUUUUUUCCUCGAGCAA

Variants of: B1
assay_explanation: nonsense suppression (GFP-seq) (ratio to wild type); higher = more function; SUP4oc tRNA, yeast GFP reporter sort-seq
Variants at the floor of the assay were thinned out.

Lookup: Entry A13U U16G A33U : reported nonsense suppression = ?
Found: 0.0384

Lookup: Item: A9C C75A G88A
Found: ≤ 0.026

Lookup: Item: C29G U55A
Found: ≤ 0.026

Lookup: Item: A13C G66C
Found: ≤ 0.026

Lookup: Item: C12U A13C U20C A60C G85A
Found: ≤ 0.026

Lookup: Item: U2C G19C U35A
Found: ≤ 0.026

Lookup: Item: U4C U22A G86A
Found: 0.552

Lookup: Item: G6A G19C G67C A87G
Found: ≤ 0.026

Lookup: Item: G32C C34G U35C
Found: ≤ 0.026

Lookup: Item: U8A A30G A33G
Found: ≤ 0.026

Lookup: Item: A60G C81U
Found: 0.0488

Lookup: Item: C5U U22C U57C A74C
Found: ≤ 0.026

Lookup: Item: G6U U17G C83A
Found: 1.15

Lookup: Item: C12U U22G
Found: 0.745

Lookup: Item: U8A A14G
Found: 0.18

Lookup: Item: U17G G66U G69A
Found: ≤ 0.026

Lookup: Item: G28C A60C
Found: 0.235

Lookup: Item: G28C U57A
Found: 0.0447

Lookup: Item: A9G G15C
Found: 0.173

Lookup: Item: A13C U16A
Found: 1.17

Lookup: Item: A33G A54G A74C
Found: ≤ 0.026

Lookup: Item: A9C G61C
Found: 0.791

Lookup: Item: C27U A31U
Found: 0.0324

Lookup: Item: A30U C64U
Found: ≤ 0.026

Lookup: Item: U20A G28C
Found: 0.182

Lookup: Item: C3A U35C
Found: ≤ 0.026

Lookup: Item: G28C C79A G85C
Found: 0.0328

Lookup: Item: C3G G7A C56G C79G
Found: 0.783

Lookup: Item: U16G A54U U63G
Found: 0.278

Lookup: Item: C12U G25U
Found: 0.192

Lookup: Item: G61A A89C
Found: 0.0288

Lookup: Item: G61C A87C
Found: 0.0361

Lookup: Item: A54U C56A C72U
Found: ≤ 0.026

Lookup: Item: U63A C68U
Found: 0.755

Lookup: Item: A13U G65A
Found: ≤ 0.026

Lookup: Item: C12A C34U
Found: 0.94

Lookup: Item: U55A C64G
Found: ≤ 0.026

Lookup: Item: U2A C29U
Found: 0.0437

Lookup: Item: A13C G84A
Found: 0.175

Lookup: Item: A30U A31G
Found: 0.25

Lookup: Item: U22G A87G
Found: 0.886

Lookup: Item: A33G G86C
Found: 0.0374

Lookup: Item: A9G A33C G66U
Found: ≤ 0.026

Lookup: Item: U2C A60U
Found: 0.194

Lookup: Item: U2A C68U
Found: 0.18

Lookup: Item: U63A G86U
Found: 0.0573
